Test system: UO-31 renal
experimental.protocol: NCI-60 one-dose screen, 48 h
conditions.used: 10 µM unless noted
About 83,000 compounds went through this panel and 20% of them were active in at least one assay; those are over-represented in the sample as a whole. Active and inactive are the calls of the source. Rule for the calls: active = growth percent below 10; inactive = the rest.
Labels: T = active, F = inactive

INSERT INTO measurements (compound, discrete_label) VALUES
  ('COc1cc2oc(-c3cccc(C(=O)Nc4cccc([N+](=O)[O-])c4)c3)cc(=O)c2c(OC)c1OC', 'T'),
  ('CC1(C)CC[C@]2(C(=O)Nc3ccc(F)cc3)CC[C@]3(C)C(=CCC4[C@@]5(C)C[C@@H](O)[C@H](O)[C@@](C)(CO)C5CC[C@]43C)C2C1 (stereo partly drawn)', 'F'),
  ('CC1(C)CC[C@]2(C(=O)Nc3ccccc3)CC[C@]3(C)C(=CCC4[C@@]5(C)C[C@@H](O)[C@H](O)[C@@](C)(CO)C5CC[C@]43C)C2C1 (stereo partly drawn)', 'F'),
  ('COc1cc2c(c(OC)c1OC)C(=O)CC(c1cccc(NC(=O)c3cc([N+](=O)[O-])ccc3Cl)c1)O2 (stereo not drawn)', 'F'),
  ('C=Cn1cc(C(=O)O)c(=O)c2cc(F)c(N3CCN(c4nccc(-c5nccs5)n4)CC3)cc21', 'T'),
  ('CCCSc1nc(Nc2ccc(S(N)(=O)=O)cc2)c(C#N)c(-c2ccc(Cl)cc2)n1', 'T'),
  ('Clc1cccc(-c2ccc(OCCCN3CCN(c4ccncc4)CC3)cc2)c1', 'F'),
  ('Nc1nnc(-c2c[nH]c3ncc(Br)cc23)c(-c2c[nH]c3ccc(F)cc23)n1', 'F');

---

Tested on: UACC-257 melanoma
experimental.protocol: NCI-60 one-dose screen, 48 h (100 = growth as untreated, 0 = no growth, -100 = all killed)
conditions.used: 10 µM unless noted
The panel holds about 83,000 compounds, 20% with a hit somewhere; the sample as a whole holds those more often. Active and inactive are the calls of the source. The calls were made as follows: active = growth percent below 10; inactive = the rest.
Below is a list of entries, each paired with its recorded growth value.
readout: growth

INSERT INTO assay_data (molecule, reported) VALUES
  ('O=C(O)c1cccc(-c2ccc(/C=N/NC(=O)c3[nH]c4ccc(Br)cc4c3-c3ccccc3)o2)c1', '93.8% (inactive)'),
  ('CC(=O)Nc1ccc(-n2cnc3cc(-c4ccc(O)cc4)ccc32)cc1C(F)(F)F', '39.7% (inactive)'),
  ('COc1ccc(-c2ccnc(SCc3cc4ccccc4[nH]c3=O)n2)cc1OC', '29.5% (inactive)'),
  ('CC(=O)Nc1ccc(-n2cnc3ccc(-c4ccc(O)cc4)cc32)cc1', '67.3% (inactive)'),
  ('COc1cc2c(c(OC)c1OC)C(=O)CC(c1cccc(NC(=O)c3cc(NC(=O)[C@H](C)N)ccc3Cl)c1)O2 (some centres undefined)', '62.9% (inactive)'),
  ('C=C1CCC2C3(C)COC(c4ccccc4F)OC3CCC2(C)C1CC(O)C1=CCOC1=O (centres undefined)', '75.1% (inactive)'),
  ('CCOC(=O)/C=C/c1cccc2c1C(=O)NC(C)(c1cc3cc(Br)ccc3oc1=O)N2 (centres undefined)', '64.6% (inactive)'),
  ('Cc1ccc(S(=O)(=O)c2nc(S(=O)(=O)c3ccc(C)cc3)c(N3CCN(C)CC3)s2)cc1', '85.8% (inactive)'),
  ('Clc1ccc(-c2ccc(OCCCN3CCN(c4ccncc4)CC3)cc2)cc1', '90.2% (inactive)'),
  ('COc1cc(OC)cc(C(=O)Nc2cccc(-c3cn(-c4ccc(S(N)(=O)=O)cc4)nn3)c2)c1', '101% (inactive)'),
  ('Cc1ccc(C(SCCNCc2cc(N(C)C)ccn2)(c2ccccc2)c2ccccc2)cc1', '-65.4% (active)'),
  ('CC(=O)Oc1ccccc1C(=O)[Se]CC(=O)Nc1cccc(C(F)(F)F)c1', '-24.2% (active)'),
  ('CC(=O)OC[C@@]1(C)C2CC[C@]3(C)C(CC=C4C5CC(C)(C)CC[C@]5(C(=O)Nc5ccc(Br)cc5)CC[C@]43C)[C@@]2(C)C[C@@H](OC(C)=O)[C@@H]1OC(C)=O (some centres undefined)', '20% (inactive)'),
  ('N#Cc1c(-c2cccnc2)cc(-c2ccc3ccccc3c2)[nH]c1=O', '105% (inactive)'),
  ('O=C(O)Cn1c(O)c(/C=C2/C=c3cc4c(cc3=NC2=O)OCCO4)sc1=S', '108% (inactive)'),
  ('Cn1cc(-c2nnc(N)nc2-c2c[nH]c3ccc(Br)cc23)c2cc(Br)cnc21', '83.4% (inactive)'),
  ('COc1ccc(C(=O)/C=C/c2ccc(OC)c(OCc3ccccc3)c2)cc1OC', '42.7% (inactive)'),
  ('COc1ccc2[nH]cc(-c3nc(N)nnc3-c3cn(C)c4ncccc34)c2c1', '72.9% (inactive)'),
  ('C/C(=N\N=C1/C(=O)Nc2ccc(Cl)cc21)c1ccc2c(c1)Nc1ccccc1S2', '10.1% (inactive)');

Just for reference, PubChem BioAssay (NCI) is where these values come from.
